Where do the numbers come from? From paper PMC6271730.

Subject Of Test: Myeloperoxidase (MPO, EC 1.11.1.7) (Homo sapiens, UniProt P05164)
Construct: commercial purified enzyme (Planta Natural Products, Vienna); mature heavy and light chains come from one precursor
Sequence (P05164 165-273): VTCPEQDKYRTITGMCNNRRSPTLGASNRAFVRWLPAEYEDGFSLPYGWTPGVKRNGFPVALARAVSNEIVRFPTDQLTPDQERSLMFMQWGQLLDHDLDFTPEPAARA
Sequence (P05164 279-745): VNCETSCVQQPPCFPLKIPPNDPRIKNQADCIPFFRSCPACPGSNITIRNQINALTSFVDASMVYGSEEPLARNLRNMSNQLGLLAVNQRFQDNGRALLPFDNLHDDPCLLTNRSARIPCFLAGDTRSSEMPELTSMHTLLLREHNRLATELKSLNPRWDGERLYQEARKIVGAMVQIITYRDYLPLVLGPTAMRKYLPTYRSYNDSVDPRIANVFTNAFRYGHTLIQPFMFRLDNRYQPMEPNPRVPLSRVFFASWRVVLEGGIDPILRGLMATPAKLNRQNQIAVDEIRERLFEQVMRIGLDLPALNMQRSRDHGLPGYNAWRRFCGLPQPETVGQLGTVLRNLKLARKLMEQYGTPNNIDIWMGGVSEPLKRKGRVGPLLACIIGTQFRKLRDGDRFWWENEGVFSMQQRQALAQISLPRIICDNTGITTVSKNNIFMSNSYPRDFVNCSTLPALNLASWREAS
Assay Summary: MPO chlorination activity, taurine chloramine / TMB oxidation at […] nm
Type: biochemical
Condition Set: read-out: IC50
Readout Kind: IC50

Which measured IC50 belongs to COc1cc(O)c2c(=O)oc3cc(O)cc(C)c3c2c1 [compound 4, alternariol monomethyl ether] , tested on Myeloperoxidase (MPO, EC 1.11.1.7) (Homo sapiens, UniProt P05164)?
> 50 µM

====

Subject Of Test: Myeloperoxidase (MPO, EC 1.11.1.7) (Homo sapiens, UniProt P05164)
Construct: commercial purified enzyme (Planta Natural Products, Vienna); mature heavy and light chains come from one precursor
Assay Summary: MPO chlorination activity, taurine chloramine / TMB oxidation at […] nm
Type: biochemical
pIC50: −log10 of the molar value.
Readout Kind: pIC50

Look at this compound and give its reported pIC50. "Cc1cc(O)cc2oc(=O)c3c(O)cc(O)cc3c12"
< 4.30
